Test system: NCI-H1618 multicellular tumor spheroid viability
Assay: Anticancer human tumor NCI-H1618 cell line growth inhibition;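 further: spheroids exposed to agents for 7 days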
Details: second compound 0.3 µM; first compound 0.316 µM; hits give low values
PROPERTY_MEASURED: viability, T/C (%)
Answers are plain numbers, in %.

Answered examples (5):
COMPOUND: COc1ccc([C@@H](O)c2cc(-c3ncnc4cc(N5CCOCC5)ccc34)c(F)cc2Cl)nn1 + CC[C@@]1(O)C(=O)OCc2c1cc1n(c2=O)Cc2cc3c(CN(C)C)c(O)ccc3nc2-1
viability, T/C (%): 2.24

COMPOUND: [2H]c1nc(C)nc([2H])c1-c1cc(NC[C@@H](C)c2cccc3c(C(=O)NC)ccnc23)ncn1 + CC[C@@]1(O)C(=O)OCc2c1cc1n(c2=O)Cc2cc3c(CN(C)C)c(O)ccc3nc2-1
viability, T/C (%): 2.69

COMPOUND: CC1COCCN1c1cc(-c2ccnn2C)c2ccnc(-c3ccn[nH]3)c2n1 (stereo unspecified) + CC[C@@]1(O)C(=O)OCc2c1cc1n(c2=O)Cc2cc3c(CN(C)C)c(O)ccc3nc2-1
viability, T/C (%): 1.52

COMPOUND: CC(C)n1c(=O)n(C)c2cnc3cc(F)c(-c4ccc(OCCCN5CCCCC5)nc4)cc3c21 + CC[C@@]1(O)C(=O)OCc2c1cc1n(c2=O)Cc2cc3c(CN(C)C)c(O)ccc3nc2-1
viability, T/C (%): 4.27

COMPOUND: Cc1cc(C)c(CNC(=O)c2cc(-c3ccc(CN4CCOCC4)cc3)cc3c2cnn3C2CCCC2)c(=O)[nH]1 + CC[C@@]1(O)C(=O)OCc2c1cc1n(c2=O)Cc2cc3c(CN(C)C)c(O)ccc3nc2-1
viability, T/C (%): 1.16

Consider now this further compound.
Test item COc1cc(C)[nH]c(=O)c1CN1CCc2c(Cl)cc(C(OC)C3COC3)c(Cl)c2C1=O (stereo unspecified) + CC[C@@]1(O)C(=O)OCc2c1cc1n(c2=O)Cc2cc3c(CN(C)C)c(O)ccc3nc2-1 ; NCI-H1618 multicellular tumor spheroid viability; reported viability, T/C was 2

###

System: NCI-H1618 multicellular tumor spheroid viability
Assay: Anticancer human tumor NCI-H1618 cell line growth inhibition; active means viability on the fitted dose curve at most 10% of control; inactive means the rest;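 further: spheroids exposed to agents for 7 days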
Conditions: second compound 0.003 µM; first compound 0.3 µM
Experimental: Multicellular complex tumor spheroid response to DNA repair inhibitors in combination with DNA-damaging drugs This study explores the anticancer activities of DNA-damaging drugs and inhibitors of DNA damage repair, both as single agents and in combinations. […] Twenty-six patient-derived or established malignant cell lines were evaluated representing sarcoma, melanoma, small cell lung cancer (SCLC), non-small cell lung cancer (NSCLC), as well as bladder, ovarian and pancreatic cancers. […]
Returns: one label drawn from active, inactive

Take a look at these entries with their results.
COMPOUND: CNCc1ccc(-c2cc(-c3nc(-c4ccc(S(=O)(=O)C(C)C)cc4)cnc3N)on2)cc1 + CC[C@@]1(O)C(=O)OCc2c1cc1n(c2=O)Cc2cc3c(CN(C)C)c(O)ccc3nc2-1
GROUP_LABEL: inactive

COMPOUND: CNCc1ccc(-c2cc(-c3nc(-c4ccc(S(=O)(=O)C(C)C)cc4)cnc3N)on2)cc1 + COc1cc2c(cc1O)CCNC21CSC2c3c(OC(C)=O)c(C)c4c(c3C(COC1=O)N1C(O)C3Cc5cc(C)c(OC)c(O)c5C(C21)N3C)OCO4
GROUP_LABEL: active

Prompt line: Test call for this compound, please: Cn1ncnc1[C@H]1c2n[nH]c(=O)c3cc(F)cc(c23)N[C@@H]1c1ccc(F)cc1 + COc1cc2c(cc1O)CCNC21CSC2c3c(OC(C)=O)c(C)c4c(c3C(COC1=O)N1C(O)C3Cc5cc(C)c(OC)c(O)c5C(C21)N3C)OCO4
Response line: active

###

I'd appreciate it if you could supply viability, T/C values for the items below.
Test system: NCI-H1618 multicellular tumor spheroid viability
Experiment: Anticancer human tumor NCI-H1618 cell line growth inhibition;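 further: spheroids exposed to agents for 7 days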
Settings: second compound 0.00949 µM; first compound 0.949 µM; hits give low values
One number for each entry, in %.

MOLECULE: Cc1sc2c(c1C)C(c1ccc(Cl)cc1)=NC(CC(=O)Nc1ccc(O)cc1)c1nnc(C)n1-2 (centres undefined) + CC[C@@]1(O)C(=O)OCc2c1cc1n(c2=O)Cc2cc3c(CN(C)C)c(O)ccc3nc2-1
viability, T/C, %: 0.92

MOLECULE: O=C(c1cc(Cc2n[nH]c(=O)c3ccccc23)ccc1F)N1CCN(C(=O)C2CC2)CC1 + CC[C@@]1(O)C(=O)OCc2c1cc1n(c2=O)Cc2cc3c(CN(C)C)c(O)ccc3nc2-1
viability, T/C, %: 1.49

MOLECULE: CNCc1ccc(-c2cc(-c3nc(-c4ccc(S(=O)(=O)C(C)C)cc4)cnc3N)on2)cc1 + CC[C@@]1(O)C(=O)OCc2c1cc1n(c2=O)Cc2cc3c(CN(C)C)c(O)ccc3nc2-1
viability, T/C, %: 0.75

Consider the additional molecule presented here.
Lab note: measured viability, T/C of Cn1ncnc1[C@H]1c2n[nH]c(=O)c3cc(F)cc(c23)N[C@@H]1c1ccc(F)cc1 + CC[C@@]1(O)C(=O)OCc2c1cc1n(c2=O)Cc2cc3c(CN(C)C)c(O)ccc3nc2-1 was 3.83

###

Tested on: NCI-H1618 multicellular tumor spheroid viability
Experiment: Anticancer human tumor NCI-H1618 cell line growth inhibition;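 further: spheroids exposed to agents for 7 days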
Conditions: second compound 30 pM; first compound 0.949 µM; hits give low values
Provide the reported viability, T/C of each item.
Numbers only, in %.

Recorded results for 3 molecules are shown here.
MOLECULE: Cn1ncnc1[C@H]1c2n[nH]c(=O)c3cc(F)cc(c23)N[C@@H]1c1ccc(F)cc1 + COc1cc2c(cc1O)CCNC21CSC2c3c(OC(C)=O)c(C)c4c(c3C(COC1=O)N1C(O)C3Cc5cc(C)c(OC)c(O)c5C(C21)N3C)OCO4
TARGET_UNDER_TEST: NCI-H1618 multicellular tumor spheroid viability
viability, T/C, %: 2.52

MOLECULE: CNCc1ccc(-c2cc(-c3nc(-c4ccc(S(=O)(=O)C(C)C)cc4)cnc3N)on2)cc1 + COc1cc2c(cc1O)CCNC21CSC2c3c(OC(C)=O)c(C)c4c(c3C(COC1=O)N1C(O)C3Cc5cc(C)c(OC)c(O)c5C(C21)N3C)OCO4
TARGET_UNDER_TEST: NCI-H1618 multicellular tumor spheroid viability
viability, T/C, %: 5.25

MOLECULE: O=C(c1cc(Cc2n[nH]c(=O)c3ccccc23)ccc1F)N1CCN(C(=O)C2CC2)CC1 + COc1cc2c(cc1O)CCNC21CSC2c3c(OC(C)=O)c(C)c4c(c3C(COC1=O)N1C(O)C3Cc5cc(C)c(OC)c(O)c5C(C21)N3C)OCO4
TARGET_UNDER_TEST: NCI-H1618 multicellular tumor spheroid viability
viability, T/C, %: 98.2

Kindly note the recorded viability, T/C for Cc1sc2c(c1C)C(c1ccc(Cl)cc1)=NC(CC(=O)Nc1ccc(O)cc1)c1nnc(C)n1-2 (centres undefined) + COc1cc2c(cc1O)CCNC21CSC2c3c(OC(C)=O)c(C)c4c(c3C(COC1=O)N1C(O)C3Cc5cc(C)c(OC)c(O)c5C(C21)N3C)OCO4 , which is 11.1

###

Tested on: NCI-H1618 multicellular tumor spheroid viability
Assay: Anticancer human tumor NCI-H1618 cell line growth inhibition;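 further: spheroids exposed to agents for 7 days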
Conditions: second compound 94.9 pM; first compound 0.949 µM; hits give low values
PROPERTY_MEASURED: viability, T/C (%)
Answers are plain numbers, in %.

Worked examples, 3 compounds total:
COMPOUND: O=C(c1cc(Cc2n[nH]c(=O)c3ccccc23)ccc1F)N1CCN(C(=O)C2CC2)CC1 + COc1cc2c(cc1O)CCNC21CSC2c3c(OC(C)=O)c(C)c4c(c3C(COC1=O)N1C(O)C3Cc5cc(C)c(OC)c(O)c5C(C21)N3C)OCO4
READOUT_UNITS: %
viability, T/C: 96.7
//
COMPOUND: Cc1sc2c(c1C)C(c1ccc(Cl)cc1)=NC(CC(=O)Nc1ccc(O)cc1)c1nnc(C)n1-2 (centres undefined) + COc1cc2c(cc1O)CCNC21CSC2c3c(OC(C)=O)c(C)c4c(c3C(COC1=O)N1C(O)C3Cc5cc(C)c(OC)c(O)c5C(C21)N3C)OCO4
READOUT_UNITS: %
viability, T/C: 3.78
//
COMPOUND: CNCc1ccc(-c2cc(-c3nc(-c4ccc(S(=O)(=O)C(C)C)cc4)cnc3N)on2)cc1 + COc1cc2c(cc1O)CCNC21CSC2c3c(OC(C)=O)c(C)c4c(c3C(COC1=O)N1C(O)C3Cc5cc(C)c(OC)c(O)c5C(C21)N3C)OCO4
READOUT_UNITS: %
viability, T/C: 2.88

For the next question, use this compound.
NCI-H1618 multicellular tumor spheroid viability viability, T/C of Cn1ncnc1[C@H]1c2n[nH]c(=O)c3cc(F)cc(c23)N[C@@H]1c1ccc(F)cc1 + COc1cc2c(cc1O)CCNC21CSC2c3c(OC(C)=O)c(C)c4c(c3C(COC1=O)N1C(O)C3Cc5cc(C)c(OC)c(O)c5C(C21)N3C)OCO4 is 2.54
